Values from ChEMBL document CHEMBL1127795

Species: Mus musculus
Test: Percent of maximum response was tested to augment the antibody response of B cells to sheep red blood cell challenge
Assay type: functional
Please respond with met when measured Max response is strictly beneath 60%, and with not met in all other cases.

> print(dat)
                                   compound  qualitative.label
1  Cn1c(=O)n(C2OC(CI)[C@@H](O)[C@H]2O)c2nc(N)nc(O)c21 (some centres not stated)                met
2  NC(=O)Cn1c(=O)n(C2OC(CO)[C@@H](O)[C@H]2O)c2nc(N)nc(O)c21 (some centres not stated)                met
3  C=CCn1c(=O)n([C@@H]2O[C@H](CO)[C@H]3OC(CCC)(CCC)O[C@H]32)c2nc(N)nc(O)c21            not met
4  CCOC(=O)Cn1c(=O)n(C2OC(CO)[C@@H](O)[C@H]2O)c2nc(N)nc(O)c21 (some centres not stated)            not met
5  Nc1nc(O)c2c(n1)n(C1OC(CO)[C@@H](O)[C@H]1O)c(=O)n2Cc1ccc(Cl)cc1 (some centres not stated)                met
6  CCCCCCCCCCn1c(=O)n(C2OC(CO)[C@@H](O)[C@H]2O)c2nc(N)nc(O)c21 (some centres not stated)                met
